- system_name: UniProt P59533
- Sequence (P59533 whole entry): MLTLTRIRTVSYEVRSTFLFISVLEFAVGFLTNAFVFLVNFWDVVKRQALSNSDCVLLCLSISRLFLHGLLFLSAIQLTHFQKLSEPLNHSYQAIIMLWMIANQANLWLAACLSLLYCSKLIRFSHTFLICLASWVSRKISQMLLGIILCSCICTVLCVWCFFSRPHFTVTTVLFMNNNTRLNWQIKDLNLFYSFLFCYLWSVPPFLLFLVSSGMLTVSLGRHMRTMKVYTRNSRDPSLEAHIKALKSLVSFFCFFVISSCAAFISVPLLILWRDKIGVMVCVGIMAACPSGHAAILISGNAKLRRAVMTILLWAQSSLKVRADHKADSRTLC
- assay_procedure: hT2R panel inhibition, transient HEK293 G16g44, agonist Prop 2.5 μM
- Assay type: cell-based
- measurement_setup: HEK293, compound at 25 μM; receptor activated to EC80 with the corresponding agonist; read-out: screening result against bitter receptor 51
- Method: Specifically, in order to evaluate the inhibitory selectivity of the Compound C compound, this compound was tested against 22 human T2Rs which were deorphaned by Senomyx. These receptors and the bitter ligands that activate these human T2Rs are reported in earlier patent applications which are incorporated by reference herein. These 22 human T2Rs are hT2R1, 3, 4, 5, 7, 8, 9, 10, 13, 14, 16, 44, 51, 54, 55, 61, 63, 64, 65, 67, 71 and 75. […]
observation_type: inhibition at 25 µM

Before answering, review these 2 worked examples.
>  <given_smiles>
COc1ccc(CN(Cc2ccccc2OC)S(=O)(=O)c2ccc(C(=O)O)cc2)cc1

>  <inhibition at 25 µM>
20 to 40%

$$$$
>  <given_smiles>
Cc1ccc(CN(Cc2ccccc2)S(=O)(=O)c2ccc(C(=O)O)cc2)cc1

>  <inhibition at 25 µM>
40 to 60%

$$$$

In the following, a different compound is considered.
Data request: Any idea what inhibition at 25 µM was measured for COc1ccc(CN(Cc2ccccc2C#N)S(=O)(=O)c2ccc(C(=O)O)cc2)cc1 ?
Data returned: 20 to 40%

The reported numbers originate from patent US9247759B2.
